# target: T1, human IL-12 (human, UniProt P29460 23-328; P29459 23-219)
# T1 construct: also called Interleukin-12
# T1 sequence 1: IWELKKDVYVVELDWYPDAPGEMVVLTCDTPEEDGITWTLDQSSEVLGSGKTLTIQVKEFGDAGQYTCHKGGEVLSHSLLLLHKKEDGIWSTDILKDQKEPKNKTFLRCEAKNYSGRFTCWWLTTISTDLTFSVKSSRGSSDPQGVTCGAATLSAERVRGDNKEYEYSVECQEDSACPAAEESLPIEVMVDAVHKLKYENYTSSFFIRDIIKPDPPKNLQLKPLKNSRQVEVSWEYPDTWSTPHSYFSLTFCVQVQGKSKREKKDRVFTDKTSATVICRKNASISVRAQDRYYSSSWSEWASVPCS
# T1 sequence 2: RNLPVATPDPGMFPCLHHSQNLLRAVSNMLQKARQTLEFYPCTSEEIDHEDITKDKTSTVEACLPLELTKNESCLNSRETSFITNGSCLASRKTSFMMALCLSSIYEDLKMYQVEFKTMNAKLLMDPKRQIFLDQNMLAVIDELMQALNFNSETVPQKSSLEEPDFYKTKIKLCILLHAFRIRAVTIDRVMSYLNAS
# method_summary: SPR (Biacore T200), 37 C, pH 7.4; captured antibody, IL-12 analyte
# Protocol: The affinity of anti-IL-12 antibodies binding to human IL-12 at pH 7.4 were determined at 37 degrees C. using Biacore T200 instrument (Cytiva). Anti-human Fc antibody (Cytiva) was immobilized onto all flow cells (FCs) of a CM4 sensor chip using amine coupling kit (Cytiva). All antibodies and analytes were prepared in ACES pH 7.4 containing 20 mM ACES, 150 mM NaCl, 0.05% Tween 20, 0.005% NaN₃. Each antibody was captured onto the sensor surface by anti-human Fc antibody. […]
measurement_type: Kd (nM)
Your answer is read as nM, so omit the unit and give the number.

Some solved cases for reference:
* Anti-IL-12 antibody Ab1 variant Y91M VH/L46Q, Y49A, Y87M VL (antibody, name in Kabat numbering, V domains shown, Ab1 with VH/VL interface substitutions; Kabat numbering) VH: QVQLVQSGAEVKKPGSSVKVSCKASGGTFSDYYLHWVRQAPGQGLEWMGWIDPENGDTEYAPKFQGRVTITADESTSTAYMELSSLRSEDTAVYMCARNKELRYFDVWGQGTLVTVSS VL: DIVMTQSPLSLPVTPGEPASISCRASQSISINLHWYQQKPGQAPRQLIAFASQSISGVPSRFSGSGSGTDFTLTISSLQPEDFATYMCQQSNSFPLTFGQGTKVEIKR | 3.83
* Anti-IL-12 antibody Ab1 variant -/P44A VL (antibody, V domains shown, Ab1 with VH/VL interface substitutions; Kabat numbering) VH: QVQLVQSGAEVKKPGSSVKVSCKASGGTFSDYYLHWVRQAPGQGLEWMGWIDPENGDTEYAPKFQGRVTITADESTSTAYMELSSLRSEDTAVYYCARNKELRYFDVWGQGTLVTVSS VL: DIVMTQSPLSLPVTPGEPASISCRASQSISINLHWYQQKPGQAARLLIYFASQSISGVPSRFSGSGSGTDFTLTISSLQPEDFATYYCQQSNSFPLTFGQGTKVEIKR | 0.858
* Anti-IL-12 antibody Ab1 variant Y91M VH/P44A, Y49A VL (antibody, name in Kabat numbering, V domains shown, Ab1 with VH/VL interface substitutions; Kabat numbering) VH: QVQLVQSGAEVKKPGSSVKVSCKASGGTFSDYYLHWVRQAPGQGLEWMGWIDPENGDTEYAPKFQGRVTITADESTSTAYMELSSLRSEDTAVYMCARNKELRYFDVWGQGTLVTVSS VL: DIVMTQSPLSLPVTPGEPASISCRASQSISINLHWYQQKPGQAARLLIAFASQSISGVPSRFSGSGSGTDFTLTISSLQPEDFATYYCQQSNSFPLTFGQGTKVEIKR | 1.83
* Anti-IL-12 antibody Ab1 variant -/A43Q VL (antibody, V domains shown, Ab1 with VH/VL interface substitutions; Kabat numbering) VH: QVQLVQSGAEVKKPGSSVKVSCKASGGTFSDYYLHWVRQAPGQGLEWMGWIDPENGDTEYAPKFQGRVTITADESTSTAYMELSSLRSEDTAVYYCARNKELRYFDVWGQGTLVTVSS VL: DIVMTQSPLSLPVTPGEPASISCRASQSISINLHWYQQKPGQQPRLLIYFASQSISGVPSRFSGSGSGTDFTLTISSLQPEDFATYYCQQSNSFPLTFGQGTKVEIKR | 0.937

Then this binder:
Query: I'd like to know its Kd. The binder in question is Anti-IL-12 antibody Ab1 variant V37S VH/Y49A, Y87L VL (antibody, name in Kabat numbering, V domains shown, Ab1 with VH/VL interface substitutions; Kabat numbering) VH: QVQLVQSGAEVKKPGSSVKVSCKASGGTFSDYYLHWSRQAPGQGLEWMGWIDPENGDTEYAPKFQGRVTITADESTSTAYMELSSLRSEDTAVYYCARNKELRYFDVWGQGTLVTVSS VL: DIVMTQSPLSLPVTPGEPASISCRASQSISINLHWYQQKPGQAPRLLIAFASQSISGVPSRFSGSGSGTDFTLTISSLQPEDFATYLCQQSNSFPLTFGQGTKVEIKR
Reply: 3.04
